Attribution: patent EP4745134A1

# maps each entry to its pIC50
ASSAYED TARGET: UniProt O14744
Sequence (O14744 whole entry): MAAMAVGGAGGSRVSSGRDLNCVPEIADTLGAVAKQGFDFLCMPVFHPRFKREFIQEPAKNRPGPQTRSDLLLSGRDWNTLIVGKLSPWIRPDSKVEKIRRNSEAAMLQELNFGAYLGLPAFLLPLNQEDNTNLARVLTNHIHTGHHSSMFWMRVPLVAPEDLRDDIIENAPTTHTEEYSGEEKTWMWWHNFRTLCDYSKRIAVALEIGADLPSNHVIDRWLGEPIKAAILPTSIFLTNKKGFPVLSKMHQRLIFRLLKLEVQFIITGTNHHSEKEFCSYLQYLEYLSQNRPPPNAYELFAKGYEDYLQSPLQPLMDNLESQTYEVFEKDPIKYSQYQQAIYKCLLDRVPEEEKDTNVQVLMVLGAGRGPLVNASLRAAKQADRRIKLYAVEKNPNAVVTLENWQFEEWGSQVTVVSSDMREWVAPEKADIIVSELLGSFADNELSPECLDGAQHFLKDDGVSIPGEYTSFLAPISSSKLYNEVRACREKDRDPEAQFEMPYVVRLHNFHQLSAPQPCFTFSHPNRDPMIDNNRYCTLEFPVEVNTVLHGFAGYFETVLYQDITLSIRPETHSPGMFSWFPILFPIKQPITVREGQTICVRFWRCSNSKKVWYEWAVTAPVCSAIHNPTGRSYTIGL
Sequence (Q9BQA1 whole entry partner): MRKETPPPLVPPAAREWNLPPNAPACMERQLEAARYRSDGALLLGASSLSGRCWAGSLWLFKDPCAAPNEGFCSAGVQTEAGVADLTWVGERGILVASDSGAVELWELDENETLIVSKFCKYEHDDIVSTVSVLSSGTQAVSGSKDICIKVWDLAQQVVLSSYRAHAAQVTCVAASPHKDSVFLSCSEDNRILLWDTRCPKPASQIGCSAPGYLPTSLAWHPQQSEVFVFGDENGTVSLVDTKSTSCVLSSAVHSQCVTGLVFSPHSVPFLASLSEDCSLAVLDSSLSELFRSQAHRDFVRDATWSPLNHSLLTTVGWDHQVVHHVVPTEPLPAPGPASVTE
EXPERIMENTAL PROTOCOL: Enzymatic inhibitory activity against PRMT5-MTA (AlphaScreen)
Format: biochemical
DETAILS: read-out: IC50
Here pIC50 is given on a logarithmic scale as minus log10 of the concentration in mol/L.

Q: Output measured pIC50 for this item: Cc1cc2cc(C(=O)N(Cc3ccc(-c4scnc4CO)cn3)N(C)c3ncccn3)ccc2nc1N [Example 236]
Ans: 8.22

Q: Output measured pIC50 for this item: Cn1ncc2c(N)nc3cc(Cl)c(C(=O)N4CC(F)(F)CN4c4ccccc4F)cc3c21 [Example 457]
Ans: 8.12

Q: Output measured pIC50 for this item: Cc1cc2nc(N)c3cnn(C)c3c2cc1C(=O)N(Cc1ccc(-c2scnc2C)cn1)N(c1ncccn1)C1CC1 [Example 251]
Ans: 8.39

Q: Output measured pIC50 for this item: Cc1cc2cc(C(=O)N(Cc3ccc(-c4scnc4C)cn3)N(C)c3ncccn3)ccc2nc1N [Example 235]
Ans: 8.42

Q: Output measured pIC50 for this item: Cn1ncc2c(N)nc3cc(Cl)c(C(=O)N4CC5(CN4c4ncc(Br)cc4F)CC(F)(F)C5)cc3c21 [Example 413]
Ans: 8.37
